# test_method_notes: chemical genetic growth profiling, strain panel (AID 1159580);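 further: tested at 20 µM; growth read once vehicle control cultures reached saturation at 30 °C; 1 = growth at the plate median or of vehicle wells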
# test_settings: S. cerevisiae deletion strains, growth OD, locus YDL017W, strain CDC7, stronger effect = lower value
Out of some 5,500 compounds screened, about 2,000 (36%) were called active. Inconclusive results (about 18%) are left out. The list shows a part of the results.

test_smiles: O=C(CO/N=C\c1ccc(Cl)cc1Cl)NNC(=S)Nc1cc(Cl)ccc1Cl
normalized growth: 1
//
test_smiles: COc1ccccc1NC(=O)Nc1nn(C)c2cccc(OC)c12
normalized growth: 0.924
//
test_smiles: CC1(C)C/C(=N/Nc2ccc(C(F)(F)F)cc2)c2cc(C(C)(C)C)c(O)c(O)c2O1
normalized growth: 0.976
//
test_smiles: COc1cc(Cl)c(NS(=O)(=O)c2cc(Br)c(Br)s2)c(OC)c1
normalized growth: 0.978
//
test_smiles: O=C(Nc1ccccn1)c1cc(-c2ccccc2)c(C(F)(F)F)s1
normalized growth: 0.945
//
test_smiles: CCOC(=O)NC(=S)NC12CC3CC(CC(C3)C1)C2
normalized growth: 0.982

---

# test_method_notes: chemical genetic growth profiling, strain panel (AID 1159580)
# test_settings: S. cerevisiae deletion strains, growth OD, locus YPL241C, strain CIN2
Screen size: about 5,500 compounds; about 2,000 (36%) were called active. Roughly 18% stayed inconclusive and do not appear here. No stated cut-off is given here; in the data, active means normalized growth mostly below about 0.91 (no sharp cut-off); inconclusive means no clear call, values can overlap the other calls; inactive means mostly above about 0.92. This is one part of the list.
Outcomes: active, inactive

molecule: NC(=O)c1cc[n+](CC2=C(C(=O)O)N3C(=O)C(NC(=O)C(c4ccccc4)S(=O)(=O)[O-])C3SC2)cc1 (stereo unspecified)
assigned_class: inactive

molecule: CSc1nc2ccc(NC(=O)c3c(-c4ccccc4)noc3C)cc2s1
assigned_class: inactive

molecule: CCOC(=O)c1c(N=Cc2cc(Br)c(Br)cc2O)sc2c1CCCC2
assigned_class: active

molecule: CC(C)CC(NP(=O)(O)O[C@@H]1O[C@@H](C)[C@H](O)[C@@H](O)[C@H]1O)C(=O)NC(Cc1c[nH]c2ccccc12)C(=O)O (stereo partly specified)
assigned_class: inactive

molecule: CN=C1CN(O)C(c2ccccc2)=c2cc(Cl)ccc2=N1
assigned_class: inactive

molecule: CCNS(=O)(=O)c1cc(Cl)sc1Cl
assigned_class: inactive

molecule: NC(N)=NOCCC(N)C(=O)O (stereo unspecified)
assigned_class: inactive

molecule: OC/C=C/c1ccc(O)c(O)c1
assigned_class: inactive

molecule: Oc1ccc(/C=C/c2cc(O)cc(O)c2)cc1
assigned_class: inactive

molecule: Cc1cn([C@H]2C[C@@H](N=[N+]=[N-])[C@@H](CO)O2)c(=O)[nH]c1=O
assigned_class: inactive

molecule: CC12C(=O)OC(=O)C1(C)C1CCC2O1 (stereo unspecified)
assigned_class: inactive

---

# test_method_notes: chemical genetic growth profiling, strain panel (AID 1159580)
# test_settings: S. cerevisiae deletion strains, growth OD, locus YJL134W, strain LCB3, stronger effect = lower value
In all, about 5,500 compounds went through this assay and about 2,000 (36%) were called active. Another 18% or so got no clear call; they are omitted. Some of the results follow.
readout_type: normalized growth

compound: CCOP(=S)(OCC)SCSCC
measurement: 1
--
compound: C=CC1=C(C)/C(=C/c2[nH]c(Cc3[nH]c(/C=C4\NC(=O)C(C)=C4C=C)c(C)c3CCC(=O)O)c(CCC(=O)O)c2C)NC1=O
measurement: 1.01
--
compound: CC[C@@]1(C2O[C@@H](C3O[C@@](O)(CC)[C@H](C)C[C@@H]3C)C[C@@H]2C)CC[C@H]([C@]2(C)CCC3(C[C@H](O)[C@@H](C)[C@@H]([C@H](C)[C@@H](OC)[C@H](C)C(=O)O)O3)O2)O1 (some centres undefined)
measurement: 1.01
--
compound: CCOP(=S)(OCC)SCSP(=S)(OCC)OCC
measurement: 0.988
--
compound: NCc1ccc(S(N)(=O)=O)cc1
measurement: 1
--
compound: COc1ccc2c(c1O)-c1c(OC)c(OC)cc3c1[C@H](C2)N(C)CC3
measurement: 1.01
--
compound: C[C@@]12C(=O)OC(=O)[C@]1(C)C1CCC2O1
measurement: 0.929
--
compound: c1cc2c(cc1[C@H]1OC[C@H]3[C@@H]1CO[C@H]3c1ccc3c(c1)OCO3)OCO2
measurement: 0.974
--
compound: CN(C)CCCO[C@H]1[C@@H](C(O)CO)OC2OC(C)(C)O[C@@H]21 (some centres undefined)
measurement: 0.993

---

# test_method_notes: chemical genetic growth profiling, strain panel (AID 1159580);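 further: tested at 20 µM; growth read once vehicle control cultures reached saturation at 30 °C; 1 = growth at the plate median or of vehicle wells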
# test_settings: S. cerevisiae deletion strains, growth OD, locus YOL012C, strain htz1
Hit rate of the full screen: of about 5,500 compounds, about 2,000 (36%) were called active. Roughly 18% stayed inconclusive and do not appear here. The list shows a part of the results.
Reported normalized growth by item:

compound: COc1c(C2COc3cc4c(cc3C2=O)CC(O)C(C)(C)O4)ccc2c1CCC(C)(C)O2 (stereo unspecified)
normalized growth: 0.808
//
compound: Nc1c(Br)cc(Br)cc1CNC1CCC(O)CC1 (stereo unspecified)
normalized growth: 0.731
//
compound: C=CC1=C(C)/C(=C/c2[nH]c(Cc3[nH]c(/C=C4\NC(=O)C(C)=C4C=C)c(C)c3CCC(=O)O)c(CCC(=O)O)c2C)NC1=O
normalized growth: 0.856
//
compound: COc1c(C(=O)O)ccc2c1CCC(C)(C)O2
normalized growth: 0.918
//
compound: CCOc1ccc2c(c1)C(C)=CC(C)(C)N2
normalized growth: 1.09
//
compound: CCCN(CCC)C(=O)C(CCC(=O)O)NC(=O)c1ccccc1 (stereo unspecified)
normalized growth: 1.01
//
compound: CN(Cc1cc(Br)cc(Br)c1N)C1CCCCC1
normalized growth: 2.06
//
compound: CC12CCC(CC1)C(C)(C)O2
normalized growth: 0.871
//
compound: CCN(CC)CCOC(=O)C(Cc1cccc2ccccc12)CC1CCCO1 (stereo unspecified)
normalized growth: 0.825
//
compound: CC1CC2C(C(O)CC3(C)C2CCC3(O)C(=O)COC(=O)CCC(=O)O)C2(C)C=CC(=O)C=C12 (stereo unspecified)
normalized growth: 0.933
//
compound: O=C(O)CCC(=O)c1ccc(-c2ccccc2)cc1
normalized growth: 0.779

---

# test_method_notes: chemical genetic growth profiling, strain panel (AID 1159580);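 further: tested at 20 µM; growth read once vehicle control cultures reached saturation at 30 °C; 1 = growth at the plate median or of vehicle wells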
# test_settings: S. cerevisiae deletion strains, growth OD, locus YER155C, strain BEM2 (second series)
Out of some 5,500 compounds screened, about 2,000 (36%) were called active. Inconclusive results (about 18%) are left out. Rule as the data show it: active = normalized growth mostly below about 0.91 (no sharp cut-off); inconclusive = no clear call, values can overlap the other calls; inactive = mostly above about 0.92. The list shows a part of the results.
Outcomes: Yes for active, No for inactive

compound: C[C@@H]1CC2C3CCC4=CC(=O)C=C[C@]4(C)[C@@]3(F)[C@@H](O)C[C@]2(C)[C@@]1(O)C(=O)COP(=O)(O)O (some centres undefined)
assigned_class: No
//
compound: NC(=O)c1ccc(N)nc1
assigned_class: No
//
compound: CC(=O)O[C@H]1C[C@@H](OC(C)=O)C(C)(C)C2C[C@@H](OC(C)=O)[C@]3(C)C(CC[C@@]4(C)[C@H](c5ccoc5)C(=O)[C@H]5O[C@]543)[C@]21C (some centres undefined)
assigned_class: No
//
compound: CC1(C)CC2C1CCC1(C)OC1CCC2(C)O (centres undefined)
assigned_class: No
//
compound: CC(=O)O[C@H]1CC[C@@]2(C)C(=CCC3C2CC[C@@]2(C)C3CC[C@@H]2C(C)CCCC(C)C)C1 (some centres undefined)
assigned_class: No
//
compound: CC(=O)O[C@H]1CC[C@@]2(C)C(=CCC3C2CC[C@]2(C)C(=O)CCC32)C1 (some centres undefined)
assigned_class: No
//
compound: O=C(NC(Cc1cc(=O)[nH]c2ccccc12)C(=O)O)c1ccc(Cl)cc1 (centres undefined)
assigned_class: No
//
compound: CC12CCCC(O)(C1)C1CC(C)(C)C1CC2 (centres undefined)
assigned_class: Yes
//
compound: CN(C)CCCO[C@H]1[C@@H](C(O)CO)OC2OC(C)(C)O[C@@H]21 (some centres undefined)
assigned_class: No

---

# test_method_notes: chemical genetic growth profiling, strain panel (AID 1159580);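 further: tested at 20 µM; growth read once vehicle control cultures reached saturation at 30 °C; 1 = growth at the plate median or of vehicle wells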
# test_settings: S. cerevisiae deletion strains, growth OD, locus YLR039C, strain RIC1
Screen size: about 5,500 compounds; about 2,000 (36%) were called active. Inconclusive results (about 18%) are left out. Rule as the data show it: active = normalized growth mostly below about 0.91 (no sharp cut-off); inconclusive = no clear call, values can overlap the other calls; inactive = mostly above about 0.92. The list shows a part of the results.
Possible outcomes: active, inactive

compound: O=C(Nc1cc(C(F)(F)F)cc(C(F)(F)F)c1)C(Sc1ccccn1)c1ccccc1 (centres undefined)
assigned_class: inactive

compound: CO[C@@H]1C[C@@H](C[C@H]2CC[C@H](C)[C@H]([C@@H](C)C(=O)O)O2)O[C@]2(O[C@](C)([C@H]3CC[C@@](C)(C4O[C@@H](C5O[C@@](O)(CO)[C@H](C)C[C@@H]5C)C[C@@H]4C)O3)C[C@H]2C)[C@@H]1C (some centres undefined)
assigned_class: active

compound: COc1ccccc1NC(=O)N1CCCN(C(=O)c2cccs2)CC1
assigned_class: inactive

compound: C/C=C/c1ccc(OC)cc1
assigned_class: inactive

compound: Cc1onc(-c2ccccc2Cl)c1C(=O)Nc1ccc(S(=O)(=O)Nc2nccs2)cc1
assigned_class: inactive

compound: COc1nc(N)nc(SC)n1
assigned_class: inactive

compound: CC[C@@]1(C2O[C@@H](C3O[C@@](O)(CC)[C@H](C)C[C@@H]3C)C[C@@H]2C)CC[C@H]([C@]2(C)CCC3(C[C@H](O)[C@@H](C)[C@@H]([C@H](C)[C@@H](OC)[C@H](C)C(=O)O)O3)O2)O1 (some centres undefined)
assigned_class: inactive

compound: O=C(O)CCS(=O)(=O)/C=C/c1ccccc1
assigned_class: inactive

compound: O=C(O)c1cc(C(F)(F)F)ccc1F
assigned_class: inactive

compound: Oc1cc(O)cc(/C=C/c2ccccc2)c1
assigned_class: inactive

compound: COc1ccc(-c2cc(C(F)F)nn2-c2ccc(S(N)(=O)=O)cc2)cc1F
assigned_class: inactive

compound: CCOC(=O)c1c(-c2ccc(F)cc2)csc1N
assigned_class: active

compound: COc1ccc(/C=C/c2cc(O)cc(O)c2)cc1
assigned_class: inactive

compound: CCOC(=O)c1c(C)csc1N
assigned_class: inactive

compound: CO[C@@H]1[C@@H](O[C@@H]2O[C@H](C)[C@@H](O[C@H]3C[C@@](C)(O)[C@H](O)[C@H](C)O3)[C@H](N(C)C)[C@H]2O)[C@@H](CC=O)C[C@@H](C)[C@@H](O[C@H]2CC[C@H](N(C)C)[C@@H](C)O2)/C=C/C=C/C[C@H](C)OC(=O)C[C@H]1O
assigned_class: inactive

compound: Cc1onc(-c2ccccc2Cl)c1C(=O)Nc1ccc2c(c1)OCO2
assigned_class: inactive

compound: CSc1nc2ccc(NC(=O)c3c(-c4ccccc4)noc3C)cc2s1
assigned_class: inactive

compound: C/C(=N/NC1=NCCN1)c1ccc(F)cc1
assigned_class: inactive

compound: C/C(=N/OC(=O)c1ccc(Cl)cc1)c1ccc(F)cc1
assigned_class: active
